Parameter melting point: see the listing below.
Where a name gives a salt, the structure may show the parent alone.

The following compounds have reported results that may help.
CC(C)(C)CC(=O)NCCc1nc(-c2ccc(-c3ccccc3)cc2)c[nH]1: 186 to 188 °C
CCCCCCC(NC1CCCCC1)c1nc(-c2ccc(-c3ccccc3)cc2)c[nH]1 (racemic) (as salt: hydrochloride): 168 to 170 °C
CC(C)(C)OC(=O)NC1(c2nc(-c3ccccc3)c[nH]2)CCCCC1: 170 to 172 °C
c1ccc(-c2c[nH]c([C@@H](NCC3CC3)C3CCCCC3)n2)cc1 (as salt: hydrochloride): 151 to 152 °C
NCc1nc(-c2ccccc2)c(-c2ccccc2)[nH]1 (as salt: hydrochloride): 210 to 212 °C

Turning to the following compound.
Data point: CCCCC(N)c1nc(-c2ccc(-c3ccccc3)cc2)c[nH]1 (racemic) (as salt: hydrochloride) ; melting point = 197 to 200 °C

---

Counter-ions that a name gives are not always drawn.
Entries and their melting point

Please review the entries below; each comes with its answer.
CC(C)(C)c1cc(-c2c[nH]c([C@@H](NCC3CCCCC3)C3CCCCC3)n2)cc(C(C)(C)C)c1O (as salt: hydrochloride): 254.6 °C
c1ccc(CN[C@H](Cc2ccccc2)c2nc(-c3ccccc3)c[nH]2)cc1: 228 to 230 °C

--- query ---
Looking up "c1ccc(CN[C@@H](Cc2c[nH]c3ccccc23)c2nc(-c3ccccc3)c[nH]2)cc1" , I see its melting point listed as 118 to 120 °C
